# Experimental Protocol: chemical genetic growth profiling, strain panel (AID 1159580);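 also: tested at 20 µM; growth read once vehicle control cultures reached saturation at 30 °C; 1 = growth at the plate median or of vehicle wells; lower values mean less growth of the strain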
# Assay Setup: S. cerevisiae deletion strains, growth OD, locus YLR370C, strain arc18, hits give low values
Hit rate of the full screen: of about 5,500 compounds, about 2,000 (36%) were called active. About 18% were inconclusive and are not listed. The list shows a part of the results.
Under this convention, fulfilled denotes normalized growth strictly below 1 and not fulfilled denotes normalized growth at or above 1.

>  <Compound>
CN(C)C(=O)Oc1cc(OC(=O)N(C)C)cc(C(O)CNC(C)(C)C)c1 (stereo not given)

>  <Class>
not fulfilled

$$$$
>  <Compound>
COC(=O)C1=C(C)NC(C)=C(C(=O)OCC(C)C)C1c1ccccc1[N+](=O)[O-] (stereo not given)

>  <Class>
fulfilled

$$$$
>  <Compound>
COc1cc([C@@H]2c3cc4c(cc3[C@H](O)[C@H]3COC(=O)[C@@H]23)OCO4)cc(OC)c1OC

>  <Class>
not fulfilled

$$$$

---

Measured normalized growth by item
# Experimental Protocol: chemical genetic growth profiling, strain panel (AID 1159580)
# Assay Setup: S. cerevisiae deletion strains, growth OD, locus YDL132W, strain cdc53, hits give low values
The whole screen tested about 5,500 compounds, of which about 2,000 (36%) were called active. Not shown: some 18% with an inconclusive outcome. The list shows a part of the results.
Readout Name: normalized growth

>  <Compound>
CCC(C)Cn1c(Sc2ncc([N+](=O)[O-])s2)n[nH]c1=O (centres undefined)

>  <Recorded Value>
0.849

$$$$
>  <Compound>
Cc1cc(C(=O)O/N=C(/N)CSc2ncccc2C(F)(F)F)no1

>  <Recorded Value>
0.99

$$$$
>  <Compound>
Cc1ccc(C(O)(c2ccccc2)c2ccccc2)c2ccccc12

>  <Recorded Value>
0.976

$$$$
>  <Compound>
Clc1ccc(-c2csc(Nc3ccccc3)n2)s1

>  <Recorded Value>
0.94

$$$$
>  <Compound>
O=C(CSCc1nc(-c2ccc(Cl)cc2)cs1)N/N=C\c1cccs1

>  <Recorded Value>
0.966

$$$$
>  <Compound>
CN(C(=O)N(C)c1ccc(Cl)cc1C(=O)c1ccccc1Cl)c1ccc(Cl)cc1C(=O)c1ccccc1Cl

>  <Recorded Value>
0.853

$$$$
>  <Compound>
CCCc1cnc(N2CCN(CC(=O)N(c3ccccc3)C3CCCCC3)CC2)nc1

>  <Recorded Value>
0.992

$$$$
>  <Compound>
Cc1csc2ncnc(N/N=C\c3ccccc3Cl)c12

>  <Recorded Value>
0.958

$$$$
>  <Compound>
N#CCCCCOc1ccc2c(=O)cc(-c3ccccc3)oc2c1

>  <Recorded Value>
0.971

$$$$

---

# Experimental Protocol: chemical genetic growth profiling, strain panel (AID 1159580);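 also: tested at 20 µM; growth read once vehicle control cultures reached saturation at 30 °C; 1 = growth at the plate median or of vehicle wells; lower values mean less growth of the strain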
# Assay Setup: S. cerevisiae deletion strains, growth OD, locus YNL250W, strain rad50, hits give low values
The campaign covered roughly 5,500 compounds. About 2,000 (36%) were called active. About 18% were inconclusive and are not listed. This is one part of the list.
Parameter normalized growth: see the listing below.
Readout Name: normalized growth

>  <Compound>
COC(=O)C[C@H]1C(C)(C)C(=O)[C@@H]2CC3=C4CC(OC)O[C@@H](c5ccoc5)[C@]4(C)CCC3[C@@]1(C)C2=O (stereo partly specified)

>  <Recorded Value>
0.986 (inactive)

$$$$
>  <Compound>
COc1ccc(-c2cc(=O)c3ccccc3o2)cc1

>  <Recorded Value>
0.921 (inactive)

$$$$
>  <Compound>
CC(C)c1ccc2c(c1O)CC[C@H]1C3=C(CC[C@]21C)C(=O)OC3

>  <Recorded Value>
0.971 (inactive)

$$$$
>  <Compound>
CC(C)(Oc1ccc(Cl)cc1)C(=O)O

>  <Recorded Value>
0.985 (inactive)

$$$$
>  <Compound>
OC1C(O)C(O)C(O)C(O)C1O (stereo unspecified)

>  <Recorded Value>
0.979 (inactive)

$$$$
>  <Compound>
CN1CCc2c(c3ccccc3n2Cc2ccccc2)C1

>  <Recorded Value>
1.01 (inactive)

$$$$
>  <Compound>
C=CCc1ccccc1OCC(O)CNC(C)C (stereo unspecified)

>  <Recorded Value>
1.01 (inactive)

$$$$
>  <Compound>
CC(C)Oc1ccc2c(=O)cc(-c3ccccc3)oc2c1

>  <Recorded Value>
0.767 (active)

$$$$
>  <Compound>
CCN(CCCCOC(=O)c1ccc(OC)c(OC)c1)C(C)Cc1ccc(OC)cc1 (stereo unspecified)

>  <Recorded Value>
0.987 (inactive)

$$$$
>  <Compound>
COc1cc2c3cc1Oc1cc(ccc1O)C[C@@H]1c4c(cc(OC)c(O)c4Oc4ccc(cc4)C[C@@H]3N(C)CC2)CC[N+]1(C)C

>  <Recorded Value>
1.01 (inactive)

$$$$
>  <Compound>
Cn1c(=O)c2[nH]c(C3CCCC3)nc2n(C)c1=O

>  <Recorded Value>
1 (inactive)

$$$$

---

# Experimental Protocol: chemical genetic growth profiling, strain panel (AID 1159580);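 also: tested at 20 µM; growth read once vehicle control cultures reached saturation at 30 °C; 1 = growth at the plate median or of vehicle wells; lower values mean less growth of the strain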
# Assay Setup: S. cerevisiae deletion strains, growth OD, locus YOR144C, strain elg1, hits give low values
Hit rate of the full screen: of about 5,500 compounds, about 2,000 (36%) were called active. Not shown: some 18% with an inconclusive outcome. This is one part of the list.
Readings of normalized growth for the listed compounds

>  <Test Smiles>
COc1ccc(-c2coc3cc(O)cc(O)c3c2=O)cc1

>  <normalized growth>
0.652

$$$$
>  <Test Smiles>
CC(=O)O.CC(=O)O.[Cd]

>  <normalized growth>
0.461

$$$$
>  <Test Smiles>
O=C(/C=C/c1ccccc1)c1ccc(O)cc1

>  <normalized growth>
0.88

$$$$
>  <Test Smiles>
COc1cc2c3cc1Oc1cc(ccc1O)C[C@@H]1c4c(cc(OC)c(O)c4Oc4ccc(cc4)C[C@@H]3N(C)CC2)CC[N+]1(C)C

>  <normalized growth>
0.993

$$$$
>  <Test Smiles>
CN1CCc2c(c3ccccc3n2Cc2ccccc2)C1

>  <normalized growth>
1.01

$$$$
>  <Test Smiles>
COc1ccc(-c2cc(=O)c3cc(OC)ccc3o2)cc1

>  <normalized growth>
0.997

$$$$
>  <Test Smiles>
O=C1CCc2cc(OCCCCc3nnnn3C3CCCCC3)ccc2N1

>  <normalized growth>
0.995

$$$$
>  <Test Smiles>
O=c1c(-c2cc(O)c(O)c(O)c2)coc2cc(O)c(O)c(O)c12

>  <normalized growth>
0.915

$$$$
>  <Test Smiles>
COc1cc([C@@H]2c3cc4c(cc3[C@H](O)[C@H]3COC(=O)[C@@H]23)OCO4)cc(OC)c1OC

>  <normalized growth>
1

$$$$
>  <Test Smiles>
CC(=O)Oc1cc(-c2coc3cc(OC(C)=O)c(OC(C)=O)c(OC(C)=O)c3c2=O)cc(OC(C)=O)c1OC(C)=O

>  <normalized growth>
0.797

$$$$

---

# Experimental Protocol: chemical genetic growth profiling, strain panel (AID 1159580);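 also: tested at 20 µM; growth read once vehicle control cultures reached saturation at 30 °C; 1 = growth at the plate median or of vehicle wells; lower values mean less growth of the strain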
# Assay Setup: S. cerevisiae deletion strains, growth OD, locus YJR075W, strain HOC1
In all, about 5,500 compounds went through this assay and about 2,000 (36%) were called active. About 18% were inconclusive and are not listed. Rule as the data show it: active = normalized growth mostly below about 0.91 (no sharp cut-off); inconclusive = no clear call, values can overlap the other calls; inactive = mostly above about 0.92. This is one part of the list.
Outcomes: active, inactive

>  <Compound>
CC(C)(Oc1ccc(Cl)cc1)C(=O)O

>  <Class>
inactive

$$$$
>  <Compound>
Cc1cc(Br)c(OCC(=O)NN)c2c1CCC2

>  <Class>
inactive

$$$$
>  <Compound>
COc1ccc(-c2cc(=O)c3c(OC)cccc3o2)cc1

>  <Class>
inactive

$$$$
>  <Compound>
CN(C)CCC=C1c2ccccc2CCc2ccccc21

>  <Class>
inactive

$$$$
>  <Compound>
CC(=O)Nc1ccc(O)cc1

>  <Class>
inactive

$$$$
>  <Compound>
CC1=CCc2c(cc3oc(C)cc(=O)c3c2O)OC1

>  <Class>
inactive

$$$$
>  <Compound>
Clc1cccc(-c2csc(Nc3cccnc3)n2)c1

>  <Class>
inactive

$$$$
>  <Compound>
CC(C)Oc1ccc2c(=O)cc(-c3ccccc3)oc2c1

>  <Class>
inactive

$$$$
>  <Compound>
N/C(=N/OS(=O)(=O)c1ccc(Cl)cc1)c1ccc(C(F)(F)F)cc1

>  <Class>
inactive

$$$$
>  <Compound>
COc1ccc(-c2coc3cc(O)cc(O)c3c2=O)cc1

>  <Class>
active

$$$$
>  <Compound>
CC(=O)Nc1cccc(O)c1

>  <Class>
inactive

$$$$
>  <Compound>
c1ccc(Sc2c(-c3ccccc3)nc3ccccn23)cc1

>  <Class>
active

$$$$
>  <Compound>
CC(=O)c1csc(-c2ccc(C(F)(F)F)cc2)n1

>  <Class>
inactive

$$$$
>  <Compound>
OC1C(O)C(O)C(O)C(O)C1O (stereo unspecified)

>  <Class>
inactive

$$$$
>  <Compound>
Cc1ccc(COc2ccc(C)nc2[N+](=O)[O-])cc1

>  <Class>
active

$$$$
>  <Compound>
CC(=O)/C(C)=N\O

>  <Class>
inactive

$$$$
>  <Compound>
COc1cc(NC(=O)NS(=O)(=O)c2ccc(C)cc2)cc(C(F)(F)F)c1

>  <Class>
inactive

$$$$
>  <Compound>
Cc1c(C)c(C)c(CO)c(C)c1C

>  <Class>
inactive

$$$$
>  <Compound>
Cc1onc(-c2c(Cl)cccc2Cl)c1C(=O)N1CCN(c2ncccc2C(F)(F)F)CC1

>  <Class>
inactive

$$$$
>  <Compound>
O=C1CCCc2c1c1ccccc1n2Cc1ccccc1

>  <Class>
inactive

$$$$
>  <Compound>
CCN(CC)CCNc1ccc(CO)c2sc3ccccc3c(=O)c12

>  <Class>
inactive

$$$$
>  <Compound>
CCN(CCCCOC(=O)c1ccc(OC)c(OC)c1)C(C)Cc1ccc(OC)cc1 (stereo unspecified)

>  <Class>
inactive

$$$$
>  <Compound>
Cc1coc2ccccc2c1=O

>  <Class>
inactive

$$$$
>  <Compound>
COc1cccc(-c2cc(=O)c3ccc(OC)cc3o2)c1

>  <Class>
inactive

$$$$
>  <Compound>
NCCCCNS(=O)(=O)c1cccc2c(Cl)cccc12

>  <Class>
inactive

$$$$
>  <Compound>
COc1cc(O)c2c(=O)c(-c3ccc(O)cc3)coc2c1

>  <Class>
active

$$$$
>  <Compound>
CCCCOc1cc(CC2CNC(=O)N2)ccc1OC (stereo unspecified)

>  <Class>
inactive

$$$$
>  <Compound>
CC(=O)O.CC(=O)O.[Cd]

>  <Class>
active

$$$$
>  <Compound>
O=C(O)c1nc2cc(Cl)c(Cl)cc2[nH]c1=O

>  <Class>
inactive

$$$$
>  <Compound>
CCOC(=O)c1c(SC)[nH]c2c(C(F)(F)F)cccc2c1=O

>  <Class>
inactive

$$$$
>  <Compound>
CC(C)(C)C(=O)N1CCN(c2ncccc2C(F)(F)F)CC1

>  <Class>
inactive

$$$$
>  <Compound>
CC(=O)CC(c1ccccc1)c1c(O)c2ccccc2oc1=O (stereo unspecified)

>  <Class>
inactive

$$$$
>  <Compound>
NCCNC(=O)Cc1ccc(NC(=O)Cc2ccc(Nc3ncnc4c3ncn4[C@@H]3O[C@H](CO)[C@H](O)C3O)cc2)cc1 (stereo partly specified)

>  <Class>
inactive

$$$$
>  <Compound>
Cc1cc2cc3c(C)cc(=O)oc3c(C)c2o1

>  <Class>
inactive

$$$$
>  <Compound>
Nc1nc(N)c2nc(-c3ccccc3)c(N)nc2n1

>  <Class>
inactive

$$$$
>  <Compound>
N#CC1COc2ccccc2O1 (stereo unspecified)

>  <Class>
inactive

$$$$
>  <Compound>
Cn1nnnc1SCC1=C(C(=O)O)N2C(=O)C(NC(=O)C(O)c3ccccc3)C2SC1 (stereo unspecified)

>  <Class>
inactive

$$$$
>  <Compound>
CN1CCc2c(c3ccccc3n2Cc2ccccc2)C1

>  <Class>
inactive

$$$$
>  <Compound>
O=c1c(-c2cc(O)c(O)c(O)c2)coc2cc(O)c(O)c(O)c12

>  <Class>
inactive

$$$$
>  <Compound>
CCOC(=O)c1ccc2oc3ccc(O)cc3c(=O)c2c1

>  <Class>
inactive

$$$$
>  <Compound>
CCCCCn1c(Sc2ncc([N+](=O)[O-])s2)n[nH]c1=O

>  <Class>
active

$$$$
>  <Compound>
O=C(/C=C/c1ccccc1)c1ccc(O)cc1

>  <Class>
active

$$$$
>  <Compound>
CN1C[C@@H](CS(=O)(=O)N(C)C)C[C@@H]2c3cccc4c3c(cn4C)C[C@H]21

>  <Class>
inactive

$$$$
>  <Compound>
C#CCOS(=O)OC1CCCCC1Oc1ccc(C(C)(C)C)cc1 (stereo unspecified)

>  <Class>
inactive

$$$$
>  <Compound>
CCC1C2CC3C4N(C)c5ccccc5C45CC(C2C5OC(C)=O)N3C1OC(C)=O (stereo unspecified)

>  <Class>
inactive

$$$$
>  <Compound>
Nc1ccc(C(=O)O)c(O)c1 (tested in a mixture with another compound)

>  <Class>
inactive

$$$$
>  <Compound>
O=c1c2ccccc2[se]n1-c1ccccc1

>  <Class>
active

$$$$
>  <Compound>
COc1ccc(-c2coc3cc(OC)cc(O)c3c2=O)cc1

>  <Class>
inactive

$$$$
>  <Compound>
Nc1ccc(N2C(=O)c3ccccc3C2=O)c(Cl)c1

>  <Class>
inactive

$$$$
>  <Compound>
CC1NC(=O)NC1=O (stereo unspecified)

>  <Class>
inactive

$$$$
>  <Compound>
CN(C)CCC=C1c2ccccc2C=Cc2ccccc21

>  <Class>
inactive

$$$$
